B1: glmS ribozyme (parent)
chain: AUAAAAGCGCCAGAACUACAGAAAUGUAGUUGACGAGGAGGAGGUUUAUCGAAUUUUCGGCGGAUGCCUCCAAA

- Variants of: B1
- Measurement protocol: self-cleavage kobs at 10000 uM GlcN6P; higher = faster cleavage; RNA array
- Conditions: with glucosamine-6-phosphate
Variants at the floor of the assay were thinned out.
Criterion: self-cleavage kobs at 10000 uM GlcN6P meeting or surpassing 0.0001 s⁻¹. Met: label 1. Not met: label 0.

## Task Check the entry A15C U49C : does self-cleavage kobs at 10000 uM GlcN6P equal or exceed 0.0001 s⁻¹?
## Result label 0

## Task Check if self-cleavage kobs at 10000 uM GlcN6P >= 0.0001 s⁻¹ (inclusive). Item: A12G G51U C58G
## Result label 0

## Task Tell me whether self-cleavage kobs at 10000 uM GlcN6P is at least 0.0001 s⁻¹ here: A14U A42G C61G
## Result label 0

## Task hey, is self-cleavage kobs at 10000 uM GlcN6P for this one >= 0.0001 s⁻¹? A39U G41C U49A C61U
## Result label 0

## Task Could you tell me if the measured self-cleavage kobs at 10000 uM GlcN6P of C10U A33U G62U C71A reaches 0.0001 s⁻¹ or more?
## Result label 0

Please look at the following variant next.
## Task Evaluate G40C C70G : self-cleavage kobs at 10000 uM GlcN6P at minimum 0.0001 s⁻¹?
## Result label 1
